target: wild-type Androgen Receptor (AR-wt) (Homo sapiens (Human), UniProt P10275); experiment: LNCaP-AR-wt AG reporter assay (agonist mode); format: cell-based; settings: maximum % stimulation (agonist response) over the tested concentration range; read-out: LNCaP-AR-wt AG MAX % Stim
Sequence (P10275 whole entry): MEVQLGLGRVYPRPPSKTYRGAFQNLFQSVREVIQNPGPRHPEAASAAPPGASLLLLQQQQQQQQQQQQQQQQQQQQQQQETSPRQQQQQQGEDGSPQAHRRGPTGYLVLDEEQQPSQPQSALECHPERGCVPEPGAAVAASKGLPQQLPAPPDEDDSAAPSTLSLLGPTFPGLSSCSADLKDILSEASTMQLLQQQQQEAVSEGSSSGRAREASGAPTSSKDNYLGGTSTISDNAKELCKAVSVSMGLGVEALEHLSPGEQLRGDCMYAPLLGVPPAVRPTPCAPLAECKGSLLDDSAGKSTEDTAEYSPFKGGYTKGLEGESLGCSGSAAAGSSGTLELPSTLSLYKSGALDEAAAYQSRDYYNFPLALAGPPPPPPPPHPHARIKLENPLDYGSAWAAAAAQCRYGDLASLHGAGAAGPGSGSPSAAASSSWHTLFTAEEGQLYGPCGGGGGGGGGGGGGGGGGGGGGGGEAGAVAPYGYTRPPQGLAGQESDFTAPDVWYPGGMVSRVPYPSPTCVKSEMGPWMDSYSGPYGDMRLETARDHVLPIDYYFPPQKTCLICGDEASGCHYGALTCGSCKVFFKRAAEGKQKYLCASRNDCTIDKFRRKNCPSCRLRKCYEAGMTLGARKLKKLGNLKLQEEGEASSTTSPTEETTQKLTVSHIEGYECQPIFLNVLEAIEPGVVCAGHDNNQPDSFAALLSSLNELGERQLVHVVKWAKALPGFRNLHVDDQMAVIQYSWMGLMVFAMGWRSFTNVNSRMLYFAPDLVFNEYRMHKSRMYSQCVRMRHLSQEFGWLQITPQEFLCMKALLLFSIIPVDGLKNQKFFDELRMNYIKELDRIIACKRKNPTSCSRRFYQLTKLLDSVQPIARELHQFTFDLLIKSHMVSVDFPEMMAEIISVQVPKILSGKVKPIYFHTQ
Quick reference: Emax of the listed items.
Write the number in % without appending the unit.

CC(C)(C)OC(=O)N1CCC12CC(Oc1ccc(N3C(=S)N(c4cnc(C#N)c(C(F)(F)F)c4)C(=O)C34CCC4)cn1)C2 (stereo not drawn); 0.1

Dear colleague, I am looking for the recorded Emax of the following compound: Cc1cc(N2C(=O)C3(CCC3)N(c3ccc(-c4cn[nH]c4)cc3)C2=S)cnc1C#N
2.2

Can you handle N#CCN1CCC(Oc2ccc(N3C(=S)N(c4cnc(C#N)c(Cl)c4)C(=O)C34CCC4)cn2)CC1 next?
0.4

Can you handle N#Cc1ncc(N2C(=O)C3(CCC3)N(c3ccc(O[C@H]4CCNC[C@@H]4F)cc3)C2=S)cc1C(F)(F)F (racemic) next?
0.1

Can you handle N#Cc1ncc(N2C(=O)C3(CCC3)N(c3ccc(OC4CCNCC4)nc3)C2=S)cc1Cl next?
-0.2

Can you handle N#Cc1ncc(N2C(=O)C3(CCC3)N(c3ccc4nn(CCO)cc4c3)C2=S)cc1C(F)(F)F next?
0.2

Can you handle N#Cc1ncc(N2C(=O)C3(CCC3)N(c3ccc(OC4CC5CC4CN5)nc3)C2=S)cc1C(F)(F)F (stereo not drawn) next?
0.2

---

Quick reference: EC50 of the listed items.
molecular target: wild-type Androgen Receptor (AR-wt) (Homo sapiens (Human), UniProt P10275); test: LNCaP-AR-wt AG reporter assay (agonist mode); assay type: cell-based; conditions: agonist mode; pEC50 = −Log10(EC50 in Molar); read-out: LNCaP-AR-wt AG pEC50 (converted)

Example results:
CN1CCC(Sc2ccc(N3C(=S)N(c4cnc(C#N)c(C(F)(F)F)c4)C(=O)C34CCC4)cc2)CC1 [Cpd 242]; > 15.1 µM
N#Cc1ncc(N2C(=O)C3(CCC3)N(c3ccc4nn(C5CCNCC5)cc4c3)C2=S)cc1C(F)(F)F [Cpd 115]; > 15.1 µM
N#Cc1ncc(N2C(=O)C3(CCC3)N(c3ccc(OC4CCN(C5CC5)CC4)cc3)C2=S)cc1C(F)(F)F [Cpd 36]; > 15.1 µM

Dear colleague, I am looking for the recorded EC50 of the following molecule: N#Cc1ncc(N2C(=O)C3(CCC3)N(c3ccc(CN4CCN(CCO)CC4)cc3)C2=S)cc1C(F)(F)F [Cpd 227]
> 15.1 µM

---

target: wild-type Androgen Receptor (AR-wt) (Homo sapiens (Human)); experiment: LNCaP-AR-wt AG reporter assay (agonist mode); assay type: cell-based; details: maximum % stimulation (agonist response) over the tested concentration range; read-out: LNCaP-AR-wt AG MAX % Stim
Quick reference: Emax of the listed items.
Write the number in % without appending the unit.

Example results:
COc1cc(N2C(=O)C3(CCC3)N(c3ccc(OC4CCN(C)CC4)cc3)C2=S)cnc1C#N [Cpd 23]; 0.4
Cn1ncc2cc(N3C(=S)N(c4cnc(C#N)c(Cl)c4)C(=O)C34CCC4)ccc21 [Cpd 168]; 0
N#Cc1ncc(N2C(=O)C3(CCC3)N(c3ccc(C4=CC5CCC(C4)N5)cc3)C2=S)cc1C(F)(F)F (stereo not shown) [Cpd 116]; 0.5

Please look at the following molecule next.
Dear colleague, I am looking for the recorded Emax of the following molecule: CC(C)(C)OC(=O)N1CCC(Cn2cc3cc(N4C(=S)N(c5cnc(C#N)c(C(F)(F)F)c5)C(=O)C45CCC5)ccc3n2)CC1 [Cpd 122]
0.3

---

biological target: wild-type Androgen Receptor (AR-wt) (Homo sapiens (Human)); assay: LNCaP-AR-wt ANT reporter assay (antagonist mode); type: cell-based; conditions: antagonist mode; pIC50 = −Log10(IC50 in Molar); read-out: LNCaP-AR-wt ANT pIC50 (converted)
Grouping rule (IC50): band 1 = under 100 nM, band 2 = from 100 nM up to 900 nM, band 3 = 900 nM and over

CN(C)C1CCC(Oc2ccc(N3C(=S)N(c4cnc(C#N)c(C(F)(F)F)c4)C(=O)C34CCC4)cc2)CC1 (stereo not drawn) [Cpd 81]; band 1

With those in mind, consider the next molecule.
Class (by measured IC50) for CNC(=O)Cc1ccc(N2C(=S)N(c3cnc(C#N)c(C)c3)C(=O)C23CCC3)cc1 [Cpd 8]
band 3

---

biological target: wild-type Androgen Receptor (AR-wt) (Homo sapiens (Human)); experiment: LNCaP-AR-wt ANT reporter assay (antagonist mode); type: cell-based; settings: maximum % inhibition of R1881 control response over the tested concentration range; read-out: LNCaP-AR-wt ANT MAX % Inh
Quick reference: Emax of the listed items.
Write the number in % without appending the unit.

CN1CCC12CC(Oc1ccc(N3C(=S)N(c4cnc(C#N)c(C(F)(F)F)c4)C(=O)C34CCC4)cc1)C2 (stereo not drawn); 102

Dear colleague, I am looking for the recorded Emax of the following compound: CCNC(=O)n1cc(-c2ccc(N3C(=S)N(c4cnc(C#N)c(C)c4)C(=O)C34CCC4)cc2)cn1
102

Can you handle COCCn1cc2cc(N3C(=S)N(c4cnc(C#N)c(C(F)(F)F)c4)C(=O)C34CCC4)ccc2n1 next?
99.2

---

Quick reference: log10 IC50 of the listed items.
biological target: F876L mutant Androgen Receptor (AR-F876L) (Homo sapiens (Human), UniProt P10275, F877L); test: LNCaP-AR-F876L ANT reporter assay (antagonist mode); type: cell-based; settings: antagonist mode; pIC50 = −Log10(IC50 in Molar); read-out: LNCaP-AR-F876L ANT pIC50 (converted)
Sequence (P10275 whole entry F877L): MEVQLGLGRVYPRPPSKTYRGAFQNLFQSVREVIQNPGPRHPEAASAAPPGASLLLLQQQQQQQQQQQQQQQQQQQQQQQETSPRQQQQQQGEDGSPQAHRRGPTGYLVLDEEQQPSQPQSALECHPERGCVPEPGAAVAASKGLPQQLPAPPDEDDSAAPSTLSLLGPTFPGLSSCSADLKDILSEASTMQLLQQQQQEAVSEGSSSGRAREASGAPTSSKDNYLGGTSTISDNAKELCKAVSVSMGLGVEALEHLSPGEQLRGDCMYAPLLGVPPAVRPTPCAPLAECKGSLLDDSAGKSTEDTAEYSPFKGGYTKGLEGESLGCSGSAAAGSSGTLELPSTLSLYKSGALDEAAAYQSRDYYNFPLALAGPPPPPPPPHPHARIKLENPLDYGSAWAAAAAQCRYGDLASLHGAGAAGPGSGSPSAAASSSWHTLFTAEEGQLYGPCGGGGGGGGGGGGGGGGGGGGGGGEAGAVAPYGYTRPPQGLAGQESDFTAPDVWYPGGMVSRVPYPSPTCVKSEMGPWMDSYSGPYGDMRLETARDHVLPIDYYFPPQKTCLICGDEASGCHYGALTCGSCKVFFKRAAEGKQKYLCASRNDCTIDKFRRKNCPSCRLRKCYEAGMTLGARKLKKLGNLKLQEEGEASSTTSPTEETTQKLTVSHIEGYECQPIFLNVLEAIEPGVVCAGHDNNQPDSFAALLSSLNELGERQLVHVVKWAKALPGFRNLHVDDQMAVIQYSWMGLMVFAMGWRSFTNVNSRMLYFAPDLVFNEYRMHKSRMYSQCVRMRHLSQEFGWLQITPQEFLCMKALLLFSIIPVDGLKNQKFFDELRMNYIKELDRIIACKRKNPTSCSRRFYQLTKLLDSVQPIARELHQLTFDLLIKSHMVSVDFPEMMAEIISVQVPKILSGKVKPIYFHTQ
Values are log10 of IC50 in µM.

N#Cc1ncc(N2C(=O)C3(CCC3)N(c3ccc(CN4CCN(C5CC5)CC4)cc3)C2=S)cc1C(F)(F)F; -0.23
CN1CCC(Sc2ccc(N3C(=S)N(c4cnc(C#N)c(C(F)(F)F)c4)C(=O)C34CCC4)cc2)CC1; -0.61
CC(=O)N1CCC(n2ncc3cc(N4C(=S)N(c5cnc(C#N)c(C(F)(F)F)c5)C(=O)C45CCC5)ccc32)CC1; -0.15
CN1CCC12CC(Oc1ccc(N3C(=S)N(c4cnc(C#N)c(C(F)(F)F)c4)C(=O)C34CCC4)cc1)C2 (stereo not drawn); -0.70
COc1cc(N2C(=O)C3(CCC3)N(c3ccc4nn(CCO)cc4c3)C2=S)cnc1C#N; -0.53

Dear colleague, I am looking for the recorded log10 IC50 of the following compound: N#Cc1ncc(N2C(=O)C3(CCC3)N(c3ccc(O[C@@H]4CCN[C@H](C(F)(F)F)C4)cc3)C2=S)cc1C(F)(F)F (racemic)
-0.91

Can you handle N#Cc1ncc(N2C(=O)C3(CCC3)N(c3ccc4c(cnn4CCO)c3)C2=S)cc1Cl next?
-0.54

Can you handle N#Cc1ncc(N2C(=O)C3(CCC3)N(c3ccc(OC4CCN(CCF)CC4)nc3)C2=S)cc1C(F)(F)F next?
-1.33

Can you handle CN1CCC(CNC(=O)c2ccc(N3C(=S)N(c4cnc(C#N)c(C(F)(F)F)c4)C(=O)C34CCC4)cc2)CC1 next?
-0.76

Can you handle COc1cc(N2C(=O)C3(CCC3)N(c3ccc(CC4CCNCC4)cc3)C2=S)cnc1C#N next?
-0.57

Can you handle N#Cc1ncc(N2C(=O)C3(CCC3)N(c3ccc(OC4CCNC5(CCC5)C4)nc3)C2=S)cc1C(F)(F)F (racemic) next?
-0.77

Can you handle N#Cc1ncc(N2C(=O)C3(CCC3)N(c3ccc(OCCN4CCC5(CCOC5)CC4)cc3)C2=S)cc1C(F)(F)F next?
-1.00

Can you handle CN1CCC(CNC(=O)c2ccc(N3C(=S)N(c4cnc(C#N)c(C(F)(F)F)c4)C(=O)C34CCC4)cc2F)CC1 next?
-0.67

Can you handle N#Cc1ncc(N2C(=O)C3(CCC3)N(c3ccc(OC4CCCO4)cc3)C2=S)cc1C(F)(F)F (stereo not drawn) next?
-0.93

Can you handle N#Cc1ncc(N2C(=O)C3(CCC3)N(c3ccc(C(=O)NC[C@@H]4CCCNC4)c(F)c3)C2=S)cc1C(F)(F)F next?
-0.22

---

Quick reference: IC50 of the listed items.
target: F876L mutant Androgen Receptor (AR-F876L) (Homo sapiens (Human), UniProt P10275, F877L); assay: LNCaP-AR-F876L ANT reporter assay (antagonist mode); type: cell-based; conditions: antagonist mode; pIC50 = −Log10(IC50 in Molar); read-out: LNCaP-AR-F876L ANT pIC50 (converted)
Write the number in nM without appending the unit.

Example results:
Cc1cc(N2C(=O)C3(CCC3)N(c3cnc(OC4CCNCC4)nc3)C2=S)cnc1C#N; 1150
N#Cc1ncc(N2C(=O)C3(CCC3)N(c3ccc4c(ccn4CCO)c3)C2=S)cc1C(F)(F)F; 372
COc1cc(N2C(=O)C3(CCC3)N(c3ccc(CC4CCN(C)CC4)cc3)C2=S)cnc1C#N; 347
CN1CC[C@@H](CNC(=O)c2ccc(N3C(=S)N(c4cnc(C#N)c(C(F)(F)F)c4)C(=O)C34CCC4)cc2)C1; 513
N#Cc1ncc(N2C(=O)C3(CCC3)N(c3ccc(C(=O)NC[C@@H]4CCCNC4)cc3)C2=S)cc1C(F)(F)F; 2240

Dear colleague, I am looking for the recorded IC50 of the following compound: N#Cc1ncc(N2C(=O)C3(CCC3)N(c3cnc(OC4CCN(CCO)CC4)nc3)C2=S)cc1C(F)(F)F
832

Can you handle Cc1cc(N2C(=O)C3(CCC3)N(c3ccc(-c4cnn(C(N)=O)c4)cc3)C2=S)cnc1C#N next?
135

Can you handle N#CCN1CCC(Oc2ccc(N3C(=S)N(c4cnc(C#N)c(C(F)(F)F)c4)C(=O)C34CCC4)cc2)CC1 next?
245

Source listed as patent US10981926B2.
